The measured values listed here are drawn from patent US20120270769A1.

# Measured Target: human matriptase (Homo sapiens)
# Sequence (Q9Y5Y6 1-855): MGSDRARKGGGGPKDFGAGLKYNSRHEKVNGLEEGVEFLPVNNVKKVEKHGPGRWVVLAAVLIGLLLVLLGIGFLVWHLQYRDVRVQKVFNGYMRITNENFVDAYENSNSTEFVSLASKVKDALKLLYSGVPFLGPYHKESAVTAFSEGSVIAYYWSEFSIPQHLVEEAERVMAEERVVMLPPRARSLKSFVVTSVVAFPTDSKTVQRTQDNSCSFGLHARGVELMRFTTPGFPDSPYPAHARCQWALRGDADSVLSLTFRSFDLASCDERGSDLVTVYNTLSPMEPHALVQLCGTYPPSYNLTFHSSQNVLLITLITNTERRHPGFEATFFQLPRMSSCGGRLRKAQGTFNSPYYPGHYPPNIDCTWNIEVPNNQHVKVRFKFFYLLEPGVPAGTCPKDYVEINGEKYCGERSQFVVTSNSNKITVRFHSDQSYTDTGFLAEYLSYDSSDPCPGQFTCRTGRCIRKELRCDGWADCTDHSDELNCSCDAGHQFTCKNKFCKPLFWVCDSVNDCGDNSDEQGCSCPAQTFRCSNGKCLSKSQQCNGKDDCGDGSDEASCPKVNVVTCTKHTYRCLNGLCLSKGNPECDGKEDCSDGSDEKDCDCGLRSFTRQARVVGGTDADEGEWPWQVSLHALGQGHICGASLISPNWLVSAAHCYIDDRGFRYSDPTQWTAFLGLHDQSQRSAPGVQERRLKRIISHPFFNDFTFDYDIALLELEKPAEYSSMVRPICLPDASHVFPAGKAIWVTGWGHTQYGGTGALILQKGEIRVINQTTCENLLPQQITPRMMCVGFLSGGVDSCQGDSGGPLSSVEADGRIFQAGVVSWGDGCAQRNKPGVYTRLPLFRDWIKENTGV
# Protocol Details: Assay for inhibition of matriptase (fluorogenic AMC substrate)
# Format: biochemical
# Details: residual matriptase velocity with test compound, substrate Boc-Gln-Ala-Arg-AMC; method gives 10 μM for initial screening; lower = more inhibition
Readout Name: Velocity (FU/min)

* C[C@@H]1C(=O)N[C@H](Cc2c[nH]cn2)C(=O)NCCCc2ccc(F)cc2OCCN[C@@H](C2CC2)C(=O)N1C | 2700
* C[C@@H]1C(=O)N[C@H](CCCN)C(=O)NCCCc2ccc(F)cc2OCCN[C@@H](C2CC2)C(=O)N1C | 2500
* C[C@@H]1C(=O)N[C@H](CCCNC(=N)N)C(=O)NCCCc2ccc(F)cc2OCCN[C@@H](C2CC2)C(=O)N1C | 2250
* C[C@@H]1C(=O)N[C@H](CCC(N)=O)C(=O)NCCCc2ccc(F)cc2OCCN[C@@H](C2CC2)C(=O)N1C | 2440
* C[C@@H]1C(=O)N[C@H](Cc2ccc(C(=N)N)cc2)C(=O)NCCCc2ccc(F)cc2OCCN[C@H](C2CC2)C(=O)N1C | 2250
* C[C@@H]1NCCOc2cc(F)ccc2CCCNC(=O)[C@@H](Cc2ccc(C(=N)N)cc2)NC(=O)[C@@H](C)N(C)C1=O | 2300
* C[C@@H]1C(=O)N[C@H](CCCCNC(N)=O)C(=O)NCCCc2ccc(F)cc2OCCN[C@@H](C2CC2)C(=O)N1C | 2440
* C[C@@H]1C(=O)N[C@H](Cc2ccc(C(=N)N)cc2)C(=O)NCCCc2ccc(F)cc2OCCN[C@@H](C2CC2)C(=O)N1C | 1590
* C[C@@H]1C(=O)N[C@H](Cc2ccc(C(=N)N)cc2)C(=O)NCCCc2ccccc2OCCN[C@@H](C2CC2)C(=O)N1C | 1875
* C[C@@H]1C(=O)N[C@H](Cc2ccc(C(=N)N)cc2)C(=O)NCCCc2ccc(C(=N)N)cc2OCCN[C@@H](C2CC2)C(=O)N1C | 812
* C[C@@H]1C(=O)N[C@H](Cc2cscn2)C(=O)NCCCc2ccc(F)cc2OCCN[C@@H](C2CC2)C(=O)N1C | 2700
* C[C@@H]1C(=O)N[C@H](Cc2ccc(C(=N)N)cc2)C(=O)NCc2ccccc2Sc2ccccc2CN[C@@H](C2CC2)C(=O)N1C | 2125
